Provenance of the data: ChEMBL document CHEMBL1125592

target: Voltage-gated L-type calcium channel (Rattus norvegicus, UniProt P22002+Q02485+P27732); assay: Affinity to bind dihydropyridine receptor (DHP receptor) by inhibiting the radioligand [3H]nitrendipine; type: protein assay
measured_attribute: IC50 (µM)
State just the number; it will be interpreted in µM.

Ask: Let me know recorded IC50 for CCO/C(O)=C1\C(CSc2ccc(OC)cc2)=NC(C)=C(C#N)C1c1ccccc1C(F)(F)F (centres undefined) , thanks.
Result: 0.071

Ask: // fetch IC50 given entry CO/C(O)=C1\C(CSc2ccccc2)=NC(C)=C(C#N)C1c1ccccc1C(F)(F)F (centres undefined)
Result: 1

Ask: Give recorded IC50. CCOC(=O)C1=C(C)NC(C[S+]([O-])c2ccccc2C)=C(C(=O)OCC)C1c1ccccc1C(F)(F)F (stereo in doubt; 10b)
Result: 0.17

Ask: Return IC50 for the following molecule: CCOC(=O)C1=C(CS(=O)(=O)c2ccncc2)NC(C)=C(C#N)C1c1ccccc1C(F)(F)F (stereo in doubt; 54A)
Result: 0.152

Ask: Identify the reported IC50 for the following entry. CCO/C(O)=C1\C(CSc2ccncc2)=NC(C)=C(C#N)C1c1ccccc1Cl (centres undefined)
Result: 0.366

Ask: Give IC50 for CCO/C(O)=C1\C(CS(=O)(=O)c2ccncc2)=NC(C)=C(C#N)C1c1ccccc1C (centres undefined)
Result: 1.41
